study_system: Nucleic Acid
test_summary: Effective concentration required for binding to tRNA using electrophoretic mobility shift assays done at 25 degree C with pH 7.5
Format: nucleic-acid assay, Human immunodeficiency virus 1
measured_endpoint: EC50 (nM)
I only need the number, in nM, no unit after it.

Note down EC50 recorded for Nc1cc2c(=O)c(C(=O)O)cn(C3CC3)c2cc1N1CCN(c2cccc(C(F)(F)F)c2)CC1 130

---

study_system: Nucleic Acid
test_summary: Effective concentration required for binding to wild-type TAR using electrophoretic mobility shift assays done at 25 degree C with pH 7.5
Assay type: nucleic-acid assay, Human immunodeficiency virus 1
measured_endpoint: pEC50
pEC50 here: minus log base 10 of the concentration, concentration in moles per litre.

- Cn1cc(C(=O)O)c(=O)c2cc(N)c(N3CCN(c4ccccn4)CC3)cc21: 6.68

Determine from records and report pEC50 for Nc1cc2c(=O)c(C(=O)O)cn(C3CC3)c2cc1N1CCN(c2cccc(C(F)(F)F)c2)CC1 6.72
